Test system: RXF 393 renal
Assay: NCI-60 one-dose screen, 48 h (100 = growth as untreated, 0 = no growth, -100 = all killed)
Settings: 10 µM unless noted
The panel holds about 83,000 compounds, 20% with a hit somewhere; the sample as a whole holds those more often.
Output fulfilled for growth not less than 60%; output not fulfilled otherwise.

Solved entries:
| molecule | classification |
| --- | --- |
| N=C1CCC(=N)c2c1c(O)c1ccccc1c2O | fulfilled |
| Cc1cc(=O)oc2c1ccc1oc(C#N)c(C)c12 | fulfilled |
| CCN1C(=O)N(CC)C2Nn3c(s/c(=C\c4cccc([N+](=O)[O-])c4)c3=O)=NC21 (stereo not given) | not fulfilled |
| O=c1cc(-c2ccc(Cl)cc2)[nH]c2ccccc12 | fulfilled |
| C[C@@H]1N=C(c2ccc3ccccc3n2)Nc2nc3ccccn3c2C1=O | fulfilled |
| Cc1ccc2nc(NC(=O)CSc3nc(Nc4ccc([N+](=O)[O-])cc4)c(C#N)c(-c4ccccc4)n3)sc2c1 | fulfilled |

Decide: growth of `c1ccc(-c2nc([P+](c3ccccc3)(c3ccccc3)c3ccccc3)c(N3CCOCC3)o2)cc1` >= 60%?
not fulfilled

Threshold query (growth >= 60%) on `COc1ccc2c(c1)O/C(=C\c1cccc(OCC(=O)Nc3nc4ccccc4s3)c1)C2=O`
not fulfilled

Decide: growth of `Cc1ccc(/C=C2\C(=O)N(C)c3ccc(S(=O)(=O)Nc4ccc(C(C)(C)C)cc4)cc32)s1` >= 60%?
not fulfilled

Entry `COc1cccc(-c2nn(-c3ccccc3)cc2-c2ccnc(NCCNC(=O)Nc3ccc(Cl)c(Cl)c3)c2)c1` : is its growth no less than 60%?
not fulfilled

API: above_or_equal(metric=growth, cutoff=60%) for item `Cn1c(-c2c(N)n(Cc3ccc(C(F)(F)F)cc3)c3nc(C#N)c(C#N)nc23)nc2ccccc21`
not fulfilled

Hello, I need to know if `COc1ccc(-c2cc(-c3cc(OC)ccc3OC)nc(SCC(=O)c3ccccc3)c2C#N)cc1` has measured growth not below 60%. Thanks!
fulfilled

Tell me whether growth is at least 60% here: `c1ccc2cc3nc4cc5ccccc5cc4nc3cc2c1`
fulfilled

---

Test system: MDA-MB-435 melanoma
Assay: NCI-60 one-dose screen, 48 h
Conditions: 10 µM unless noted
Compounds without any hit were thinned out: in the full panel of roughly 83,000, 20% have a hit. Active and inactive are the calls of the source. Rule for the calls: active = growth percent below 10; inactive = the rest.
Outcome field: choose from Yes (active), No (inactive)

Observe how each entry below is paired with its result.
| compound | classification |
| --- | --- |
| Cn1cc(-c2csc(-c3ccccc3)n2)c2cccnc21 | Yes |
| CCN(CC)c1ccc(C(=O)c2ccc(N(CC)CC)cc2)cc1 | Yes |
| COc1ccc(-c2nc(SCCC(C)C)nc(N/N=C\c3ccccc3O)c2C#N)cc1 | No |
| COc1c(CCC[P+](c2ccccc2)(c2ccccc2)c2ccccc2)cc2c(c1OC)OCO2 | Yes |
| O=c1cc(C2NNC(=S)N2)c2ccc3ccccc3c2o1 (stereo not drawn) | No |
| Cn1c(=O)c2c(nc(Cl)n2CCl)n(C)c1=O | No |
| COc1cc(C(=O)c2cc(C)c3[nH]c4ccc(Cl)cc4c3c2C)cc(OC)c1OC | Yes |
| COc1ccc(-c2nc(SC(C)C)nc(NNC(N)=S)c2C#N)cc1 | Yes |

Dear all, I need the recorded test outcome for `O=C(Nc1ccccc1Cl)Oc1ccc(-c2ccccc2)cc1` , thank you.
No

// param item: `Cc1ccc(S(=O)(=O)N/N=C\c2cc(Cl)ccc2O)cc1` ; yields the recorded call
No

---

System: NCI-H460 lung
Experiment: NCI-60 one-dose screen, 48 h (100 = growth as untreated, 0 = no growth, -100 = all killed)
Settings: 10 µM unless noted
About 83,000 compounds went through this panel and 20% of them were active in at least one assay; those are over-represented in the sample as a whole.
result-type: growth (%)
Kindly provide the numeric value in % only, without the unit symbol.

Recorded results for 2 compounds are shown here.
| compound | target-under-test | result-type | value |
| --- | --- | --- | --- |
| CCc1ccccc1-n1c(N)c(C#N)c(-c2ccc(N(C)C)cc2)c(C#N)c1=O | NCI-H460 lung | growth | 96.4 |
| O=C(Nc1cccc(Cl)c1)c1cc(N=Nc2ccc([N+](=O)[O-])cc2Cl)ccc1O | NCI-H460 lung | growth | 39.6 |

Please tell me: growth of `CCOc1ccccc1-c1cc(-c2cccs2)c(C#N)c(=O)[nH]1` , system NCI-H460 lung?
93.8

Tell me reported growth for `CN(C)CCC=C1c2ccccc2C(C)(C)c2ccccc21` , tested with NCI-H460 lung.
85.6

Param readout= growth; system= NCI-H460 lung; entry= O=c1cc(C2NNC(=S)N2)c2ccc3ccccc3c2o1 (centres undefined) ; returns value.
98.6

GET /values?readout=growth&system=NCI-H460 lung&item= `COC(=O)[C@]12CC[C@@H](C)[C@H](C)[C@@H]1C1=CC[C@@H]3[C@@]4(C)C(C=O)=C[C@@](C)(COC(C)=O)[C@@H]4[C@H](O)C[C@@]3(C)[C@]1(C)CC2`
-64.6

So what growth did COc1cc(C2CC(c3cc(OC)c(OCCCOc4ccc(-n5c(/C=C/c6ccccc6)nc6ccccc6c5=O)cc4)c(OC)c3)=NO2)cc(OC)c1OC (centres undefined) get with NCI-H460 lung?
113

Lab note: need growth with NCI-H460 lung for entry `COc1ccc(-c2csc(C3=C(O)CN(C(C)C)C3=N)n2)cc1OC` , please look it up.
120

API: value(readout= growth, system= NCI-H460 lung, query= `Cc1nn(-c2ccccc2)c2nc3c(c(-c4ccc(Cl)cc4)c12)CNC1(CCSCC1)N3` )
99.6

---

Tested on: OVCAR-3 ovarian
Experiment: NCI-60 one-dose screen, 48 h (100 = growth as untreated, 0 = no growth, -100 = all killed)
Details: 10 µM unless noted
Compounds without any hit were thinned out: in the full panel of roughly 83,000, 20% have a hit. Activity calls are given as the source filed them. How the source made its calls: active means growth percent below 10; inactive means the rest.
Below, each entry is listed alongside its reported growth.

| given-smiles | growth |
| --- | --- |
| COc1cccc(C(=O)NCCCNc2cc(-c3cn(-c4ccccc4)nc3-c3cccc(OC)c3)ccn2)c1 | 53.3% (inactive) |
| C#CCOc1nc(C)cc(C)c1C#N | 110% (inactive) |
| CCCCn1c(=O)c2c(nc(NCCc3ccc(O)c(O)c3)n2CCC)n(CCCC)c1=O | 65.2% (inactive) |
| NC(=N\N=C/c1ccccc1[N+](=O)[O-])/C(N)=N\N=C/c1ccccc1[N+](=O)[O-] | 116% (inactive) |
| O=C(Nc1cccc(Oc2nnc(Cl)c3ccccc23)c1)Nc1ccc(Cl)c(C(F)(F)F)c1 | -41.9% (active) |
| O=C(c1ccccc1)c1c(/C=C/c2ccccc2)nc2ccccc2c1/C=C/c1ccc(Br)cc1 | 89.4% (inactive) |
| O=C(Cc1ccc(F)c(F)c1)Nc1cc(C2(C(F)(F)F)CC2)nn1Cc1ccccc1 | 7.3% (active) |
| Cc1cc(NCc2cc(Nc3ccnc4cc(Cl)ccc34)ccc2F)nc(N2CCN(c3ccccc3)CC2)n1 | 5.88% (active) |

State its growth on OVCAR-3 ovarian: `COC(=O)CCC1=C(C)C2=NC1=CC1=NC(=CC3=NC(=Cc4[nH]c(/c(=C(/C)O)c4C)=C2)C(C(C)=O)=C3C)C(C)=C1CCC(=O)OC`
107% (inactive)

---

Tested on: HCT-15 colon
Assay: NCI-60 one-dose screen, 48 h (100 = growth as untreated, 0 = no growth, -100 = all killed)
Conditions: 10 µM unless noted
About 83,000 compounds went through this panel and 20% of them were active in at least one assay; those are over-represented in the sample as a whole.
result-type: growth (%)
Lab book: enter the figure in %, no units written.

Look over these answered cases.
| given-smiles | growth [%] |
| --- | --- |
| NC(=S)Nc1cccc(O)c1 | 88.3 |
| N#Cc1nc(C#N)c(Sc2ccccc2)c(Sc2ccccc2)c1Sc1ccccc1 | -53.7 |
| O=C(/C=C/c1ccc(Cl)nc1)c1ccc(Cl)cc1Cl | 69.2 |
| CCCCn1c(=O)c2c(nc3n2CCCN3CCc2ccc(OCC(=O)NCCN(CC)CC)cc2)n(CCCC)c1=O | 1.38 |

Read the next record carefully.
What reported growth corresponds to `Cc1ccc(/C=C/c2c(C(=O)/C=C/c3ccc(C(F)(F)F)cc3)c(C)nc3ccccc23)cc1` on HCT-15 colon?
-29.6

---

Test system: NCI/ADR-RES ovarian
Experiment: NCI-60 one-dose screen, 48 h (100 = growth as untreated, 0 = no growth, -100 = all killed)
Conditions: 10 µM unless noted
Procedure: Growth inhibition of the NCI/ADR-RES human […] tumor cell line is measured as a screen for anti-cancer activity. Cells are grown in 96 well plates and exposed to the test compound for 48 hours. Compounds are tested at a single concentration, which is 10^-5 M for most compounds. The reported endpoint is percent growth (GI% or GIPRCNT), where numbers from 0 - 100% represent growth inhibition, and numbers from -100% - 0 represent cell death. For example, a value of 40 represents 60% growth inhibition. […]
Compounds without any hit were thinned out: in the full panel of roughly 83,000, 20% have a hit.
result-type: growth (%)
Enter your answer as a number in %; do not include the unit.

Solved cases below.
| molecule | growth, % |
| --- | --- |
| Cc1c2c(c(C)c3c1oc1cc(O)ccc13)C(=O)N(CCN1CCCCC1)C2=O | 81.7 |
| Cc1ccc(S(=O)(=O)Oc2cc(OS(=O)(=O)c3ccc(C)cc3)cc(OS(=O)(=O)c3ccc(C)cc3)c2)cc1 | 95.6 |
| NS(=O)(=O)c1cnccc1Oc1cccc2cccnc12 | 107 |
| N#Cc1c(N2CCNCC2)nc2sc3cc(Cl)c(Cl)cc3n2c1=N | 106 |
| N/C(=N/N=C/c1ccccc1)N/N=C\c1ccccc1 | 10.7 |
| O=C(Nc1ccc(Nc2ccncc2)cc1)c1ccc(C(=O)Nc2ccc(Nc3ccncc3)cc2)cc1 | 109 |
| COc1cc(/C=C/C(=O)c2c(C)nc3ccccc3c2C)ccc1OCCCN1CCN(C(=O)c2ccco2)CC1 | 55.6 |
| COc1cc(C2CC(=O)Nc3c2c(C)nn3-c2nc3ccccc3[nH]2)c(OC)c2c1OCO2 (stereo not given) | 63.2 |
| COc1ccc2[nH]c(O)c(/C=c3/cc4c(c(-c5ccc(F)c(OC)c5)n3)=Nc3ccccc3-4)c2c1 | 32.7 |

Turning to the following molecule.
Dear colleague, I am looking for the recorded growth of the following molecule: Cc1nc2ccccc2n1CC1NC(=O)NC1=O (stereo not given)
107

meta.source: PubChem BioAssay (NCI)
